Sourced from patent US8609703B2

# target.or.system: ΔF508-CFTR (Homo sapiens, UniProt P13569, DEL508-508)
# Construct: expressed in transfected cells
# Sequence (P13569 with tags, fused parts or gaps DEL508-508): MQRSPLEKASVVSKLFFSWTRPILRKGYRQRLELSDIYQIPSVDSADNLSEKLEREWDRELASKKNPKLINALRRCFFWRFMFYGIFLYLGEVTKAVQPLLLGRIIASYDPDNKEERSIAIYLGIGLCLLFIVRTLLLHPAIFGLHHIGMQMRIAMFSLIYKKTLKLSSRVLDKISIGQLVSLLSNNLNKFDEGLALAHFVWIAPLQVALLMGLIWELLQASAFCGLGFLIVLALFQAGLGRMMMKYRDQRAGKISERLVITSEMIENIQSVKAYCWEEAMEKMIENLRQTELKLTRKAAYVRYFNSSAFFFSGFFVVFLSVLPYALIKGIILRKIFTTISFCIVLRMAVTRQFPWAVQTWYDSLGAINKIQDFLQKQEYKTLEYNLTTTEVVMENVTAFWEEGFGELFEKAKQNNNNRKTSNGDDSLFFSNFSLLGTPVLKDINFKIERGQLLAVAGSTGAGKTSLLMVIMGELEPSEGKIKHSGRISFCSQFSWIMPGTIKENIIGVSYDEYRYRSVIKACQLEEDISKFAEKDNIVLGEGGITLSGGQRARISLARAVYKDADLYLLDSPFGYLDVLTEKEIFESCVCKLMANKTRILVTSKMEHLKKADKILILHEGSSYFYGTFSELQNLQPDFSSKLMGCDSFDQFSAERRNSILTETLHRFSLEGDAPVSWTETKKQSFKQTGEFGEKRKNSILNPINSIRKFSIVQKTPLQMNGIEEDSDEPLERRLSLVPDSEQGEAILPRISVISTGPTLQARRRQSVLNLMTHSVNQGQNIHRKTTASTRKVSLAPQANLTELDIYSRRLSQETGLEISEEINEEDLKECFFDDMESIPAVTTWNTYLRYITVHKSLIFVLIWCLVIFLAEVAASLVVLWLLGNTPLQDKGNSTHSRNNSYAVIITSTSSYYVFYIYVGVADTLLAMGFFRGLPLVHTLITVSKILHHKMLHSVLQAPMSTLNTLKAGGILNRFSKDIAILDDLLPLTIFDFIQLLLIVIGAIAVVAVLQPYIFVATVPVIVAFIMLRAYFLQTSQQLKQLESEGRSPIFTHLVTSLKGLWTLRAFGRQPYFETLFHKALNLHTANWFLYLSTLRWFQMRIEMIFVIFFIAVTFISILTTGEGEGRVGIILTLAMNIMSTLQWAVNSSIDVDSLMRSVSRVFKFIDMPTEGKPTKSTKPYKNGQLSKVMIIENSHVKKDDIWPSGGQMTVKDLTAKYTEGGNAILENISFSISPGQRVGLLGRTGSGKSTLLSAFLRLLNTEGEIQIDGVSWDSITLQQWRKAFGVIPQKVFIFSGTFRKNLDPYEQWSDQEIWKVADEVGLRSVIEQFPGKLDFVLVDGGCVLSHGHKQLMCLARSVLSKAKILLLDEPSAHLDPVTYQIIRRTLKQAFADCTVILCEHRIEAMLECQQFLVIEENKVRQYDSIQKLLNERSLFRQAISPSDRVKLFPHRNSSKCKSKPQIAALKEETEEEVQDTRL
# procedure.summary: EC50 and relative efficacy as modulators of ΔF508-CFTR (membrane potential optical assay)
# Format: cell-based
# run.conditions: relative efficacy
observable: % Activity

1. O=C(Nc1ccc(N2CCN(C(c3ccccc3)c3ccccc3)CC2)cc1)C(=O)c1c[nH]c2ccccc12    + (“+” means <25%)
2. O=C(Nc1ccc(F)cc1)C(=O)c1c[nH]c2ccc(Br)cc12    + (“+” means <25%)
3. Cn1cc(C(=O)C(=O)Nc2ccccc2-c2ccccc2)c2ccccc21    + (“+” means <25%)

* * *

# target.or.system: ΔF508-CFTR (Homo sapiens, UniProt P13569, DEL508-508)
# Construct: expressed in transfected cells
# procedure.summary: EC50 and relative efficacy as modulators of ΔF508-CFTR (membrane potential optical assay)
# Type: cell-based
# Source text: I) Membrane Potential Optical Methods for Assaying ΔF508-CFTR Modulation Properties of Compounds […] These voltage sensitive assays are based on the change in fluorescence resonant energy transfer (FRET) between the membrane-soluble, voltage-sensitive dye, DiSBAC2(3), and a fluorescent phospholipid, CC2-DMPE, which is attached to the outer leaflet of the plasma membrane and acts as a FRET donor. […]
Below, each of the compounds is paired with its reported EC50 value.
observable: EC50

1. Cc1ccc(C)n1-c1ccccc1NC(=O)C(=O)c1c[nH]c2ccccc12    1000 to 5000 nM
2. O=C(Nc1ccccc1-c1ccccc1)C(=O)c1c[nH]c2ccccc12    < 1000 nM
3. Cn1cc(C(=O)C(=O)Nc2ccccc2)c2ccccc21    > 5000 nM
4. O=C(Nc1ccccc1Oc1ccc(Cl)cc1Cl)C(=O)c1c[nH]c2ccccc12    < 1000 nM
5. O=C(Nc1ccccc1CN1CCCC1)C(=O)c1c[nH]c2ccccc12    1000 to 5000 nM
6. CCCc1ccccc1NC(=O)C(=O)c1c[nH]c2ccccc12    < 1000 nM
7. Cn1cc(C(=O)C(=O)Nc2ccccc2-c2ccccc2)c2ccccc21    > 5000 nM
8. O=C(Nc1ccccc1)C(=O)c1c[nH]c2ccccc12    1000 to 5000 nM
9. CC(C)(C)c1cc2cc[nH]c2cc1NC(=O)C(=O)c1c[nH]c2ccccc12    < 1000 nM
10. O=C(Nc1ccc(F)cc1)C(=O)c1c[nH]c2ccc(Br)cc12    < 1000 nM

* * *

# target.or.system: ΔF508-CFTR (Homo sapiens, UniProt P13569, DEL508-508)
# Construct: expressed in transfected cells
# procedure.summary: EC50 and relative efficacy as modulators of ΔF508-CFTR (membrane potential optical assay)
# Assay type: cell-based
observable: EC50

1) C=C(C)c1ccccc1NC(=O)C(=O)c1c[nH]c2ccccc12    < 1000 nM
2) Cc1ccccc1Oc1ccccc1NC(=O)C(=O)c1c[nH]c2ccccc12    < 1000 nM
3) O=C(Nc1ccccc1OC(F)F)C(=O)c1c[nH]c2ccccc12    1000 to 5000 nM
4) O=C(Nc1ccc2cc[nH]c2c1)C(=O)c1c[nH]c2ccccc12    < 1000 nM
5) CC(C)(C)c1cc(C(C)(C)C)c(NC(=O)C(=O)c2c[nH]c3ccccc23)cc1O    < 1000 nM
6) O=C(Nc1cccc(C(F)(F)F)n1)C(=O)c1c[nH]c2ccccc12    < 1000 nM
7) Nc1cc(NC(=O)C(=O)c2c[nH]c3ccccc23)cc(C(F)(F)F)c1    1000 to 5000 nM
